target entity: Schistosoma mansoni thioredoxin glutathione reductase (TGR)
experiment summary: qHTS Assay for the Inhibitors of Schistosoma Mansoni Peroxiredoxins; further: nearly all actives have a fitted effect of over 60% in size
assay setup: purified TGR, DTNB reduction, TNB absorbance 405 nm; series mostly up to 114 µM
In all, about 360,000 compounds went through this assay and about 11,000 (3.1%) were called active. Not shown: some 4% with an inconclusive outcome. The call rests on the fitted dose curve; in most records, active means well fitted inhibition curve with a large enough effect; inconclusive means small, poorly fitted or top-dose-only effect; inactive means no such curve, though single readings can be large or run the other way. For the sample, actives were picked, then their nearest neighbours and some compounds at random.
Return exactly one item of yes (1) for active, no (0) for inactive

COc1ccc(CNC(=O)c2cc3c(s2)-c2ccccc2OC3)cc1	no (0)
O=C1CSC(=S)N1/N=C/c1ccc(O)c([N+](=O)[O-])c1	yes (1)
COc1ccccc1CNC(=O)CCCn1c(=O)c2ccccc2n(CC(=O)Nc2ccc(C)cc2Cl)c1=O	no (0)
Cc1ccc(N(Cc2cc3ccccc3[nH]c2=O)C(=O)c2cccs2)cc1	no (0)
COc1ccc(/C=C(\C#N)c2c[nH]c3ccccc23)cc1	yes (1)
CCOc1ccc(/C=C(\C#N)c2nc3ccccc3c(=O)[nH]2)cc1OC	no (0)

IN: Outcome logged for CCOc1ccc2nc(N3CCC(C(=O)Nc4cc(C)ccc4C)CC3)sc2c1 in this assay:
OUT: no (0)

IN: Outcome logged for CO/N=C/c1ccc(N2CCN(C(=O)c3cccc(Cl)c3)CC2)c([N+](=O)[O-])c1 in this assay:
OUT: no (0)

IN: Outcome logged for COc1ccc(-c2nc3sc(CCNS(=O)(=O)c4ccc(F)c(C)c4)c(C)n3n2)cc1 in this assay:
OUT: no (0)

IN: Outcome logged for COc1cccc(-n2c(SCC(=O)c3c[nH]c4ccccc34)nc3ccccc3c2=O)c1 in this assay:
OUT: no (0)
